For each of the molecules below, state its pEC50.
experimental.system: Metabotropic glutamate receptor 4 (Homo sapiens, UniProt Q14833)
Sequence (Q14833 whole entry): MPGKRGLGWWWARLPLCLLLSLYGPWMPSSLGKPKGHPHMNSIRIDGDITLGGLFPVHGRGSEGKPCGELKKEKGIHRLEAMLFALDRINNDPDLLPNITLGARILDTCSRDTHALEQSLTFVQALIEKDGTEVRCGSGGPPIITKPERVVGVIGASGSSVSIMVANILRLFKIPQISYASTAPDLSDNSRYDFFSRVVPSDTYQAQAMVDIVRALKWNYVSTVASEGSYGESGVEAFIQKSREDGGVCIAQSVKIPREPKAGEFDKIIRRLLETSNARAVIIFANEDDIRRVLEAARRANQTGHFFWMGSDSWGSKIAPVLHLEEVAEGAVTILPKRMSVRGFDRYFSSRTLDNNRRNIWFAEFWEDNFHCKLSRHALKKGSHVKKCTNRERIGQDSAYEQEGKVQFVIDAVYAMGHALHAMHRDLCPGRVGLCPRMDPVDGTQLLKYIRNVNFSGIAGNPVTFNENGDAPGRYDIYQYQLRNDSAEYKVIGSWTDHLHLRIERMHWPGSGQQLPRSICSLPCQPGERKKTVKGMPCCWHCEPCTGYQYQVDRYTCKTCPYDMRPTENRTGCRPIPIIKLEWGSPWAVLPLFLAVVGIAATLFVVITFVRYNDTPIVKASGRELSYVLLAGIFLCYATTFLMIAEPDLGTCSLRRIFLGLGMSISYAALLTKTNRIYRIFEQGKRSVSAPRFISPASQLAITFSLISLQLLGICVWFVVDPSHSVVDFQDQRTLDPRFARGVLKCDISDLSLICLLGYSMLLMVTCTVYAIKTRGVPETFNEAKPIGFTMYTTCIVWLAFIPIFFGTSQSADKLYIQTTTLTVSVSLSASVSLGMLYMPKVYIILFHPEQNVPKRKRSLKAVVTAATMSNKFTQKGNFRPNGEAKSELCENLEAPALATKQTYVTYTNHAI
protocol.details: Positive allosteric modulation of human mGluR4 expressed in CHO cells co-expressing Gqi5 assessed as increase in glutamate-induced calcium flux preincubated for 2.5 mins followed by glutamate addition by Fluo-4-AM dye based fluorescence assay
Type: functional, cell-based
assay.context: read-out: EC50
Give bare numbers, as −log10 of the molar value.

Recorded pEC50, per entry:
>  <smiles.code>
Cn1ccc2cc(Nc3n[nH]c4cccnc34)ccc21

>  <experimental.system>
Metabotropic glutamate receptor 4 (Homo sapiens, UniProt Q14833)

>  <measurement.type>
pEC50

>  <result.number>
5.44

$$$$
>  <smiles.code>
Cn1nc(C2(C)CC2)c2ccc(Nc3n[nH]c4cccnc34)cc21

>  <experimental.system>
Metabotropic glutamate receptor 4 (Homo sapiens, UniProt Q14833)

>  <measurement.type>
pEC50

>  <result.number>
7.17

$$$$
>  <smiles.code>
Cn1nc(C(=O)NC2CCC2)c2ccc(Nc3n[nH]c4cccnc34)cc21

>  <experimental.system>
Metabotropic glutamate receptor 4 (Homo sapiens, UniProt Q14833)

>  <measurement.type>
pEC50

>  <result.number>
6.19

$$$$
>  <smiles.code>
Cc1nn(CC2CCC2)c2ccc(Nc3n[nH]c4cccnc34)cc12

>  <experimental.system>
Metabotropic glutamate receptor 4 (Homo sapiens, UniProt Q14833)

>  <measurement.type>
pEC50

>  <result.number>
7.33

$$$$
>  <smiles.code>
Cn1nc(C2(C)CC2)c2ccc(Nc3n[nH]c4nccnc34)cc21

>  <experimental.system>
Metabotropic glutamate receptor 4 (Homo sapiens, UniProt Q14833)

>  <measurement.type>
pEC50

>  <result.number>
7.60

$$$$
>  <smiles.code>
Cc1nn(C2CCCC2)c2ccc(Nc3n[nH]c4cccnc34)cc12

>  <experimental.system>
Metabotropic glutamate receptor 4 (Homo sapiens, UniProt Q14833)

>  <measurement.type>
pEC50

>  <result.number>
6.58

$$$$
>  <smiles.code>
Cn1ncc2ccc(Nc3n[nH]c4cccnc34)cc21

>  <experimental.system>
Metabotropic glutamate receptor 4 (Homo sapiens, UniProt Q14833)

>  <measurement.type>
pEC50

>  <result.number>
6.59

$$$$
>  <smiles.code>
CCc1nn(C)c2cc(Nc3n[nH]c4cccnc34)ccc12

>  <experimental.system>
Metabotropic glutamate receptor 4 (Homo sapiens, UniProt Q14833)

>  <measurement.type>
pEC50

>  <result.number>
7.42

$$$$
>  <smiles.code>
Cn1nc(C2CC2)c2ccc(Nc3n[nH]c4cccnc34)cc21

>  <experimental.system>
Metabotropic glutamate receptor 4 (Homo sapiens, UniProt Q14833)

>  <measurement.type>
pEC50

>  <result.number>
7.37

$$$$
>  <smiles.code>
Cn1nc(C(=O)N2CC[C@H](F)C2)c2ccc(Nc3n[nH]c4cccnc34)cc21

>  <experimental.system>
Metabotropic glutamate receptor 4 (Homo sapiens, UniProt Q14833)

>  <measurement.type>
pEC50

>  <result.number>
6.12

$$$$

Record pEC50 for all entries; do not skip any.
1. Cn1nc(C(=O)N2CC[C@@H](F)C2)c2ccc(Nc3n[nH]c4cccnc34)cc21
2. Cn1nc(C(=O)N2CCC(F)(F)CC2)c2ccc(Nc3n[nH]c4cccnc34)cc21
3. Cn1nnc2ccc(Nc3n[nH]c4cccnc34)cc21
4. CCn1nc(C2CC2)c2ccc(Nc3n[nH]c4cccnc34)cc21

[6.04, 6.30, 5.84, 5.92]

For each listed entry, give its pEC50.
1. CN1CCC(Oc2nn(C)c3cc(Nc4n[nH]c5cccnc45)ccc23)CC1
2. Cn1nc(C2CC2)c2ccc(Nc3n[nH]c4nccnc34)cc21
3. Cn1ncc2cc(Nc3n[nH]c4cccnc34)ccc21
4. c1cnc2c(Nc3ccc4c(C5CC5)n[nH]c4c3)n[nH]c2c1
5. [2H]C([2H])([2H])Cn1nc(C2CC2)c2ccc(Nc3n[nH]c4ncccc34)cc21
6. Cn1nc(C(F)(F)F)c2ccc(Nc3n[nH]c4cccnc34)cc21

1. 5.73
2. 7.70
3. 6.06
4. 6.34
5. 6.80
6. 6.92
